- Tested on: P93_24
- ASSAY: qHTS profiling for inhibitors of Plasmodium falciparum proliferation (AID 504749); further: nearly all actives have a fitted effect of over 60% in size
- CONDITIONS: P. falciparum in erythrocytes, SYBR Green DNA, 72 h; series mostly up to 28.7 µM
Results filed as inconclusive are left out. Calls of active or inactive are those of the source. The call rests on the fitted dose curve; in most records, active means well fitted inhibition curve with a large enough effect; inconclusive means small, poorly fitted or top-dose-only effect; inactive means flat fitted curve, though single readings scatter.
Choose the fitting class; nothing outside active, inactive is accepted.

Query :: Please let me know the test result on file for O=C1CCCCC1CN1CCCCC1 (centres undefined) .
Result :: inactive

Query :: Please let me know the test result on file for `CCCCCl` .
Result :: inactive

Query :: Please let me know the test result on file for `c1csc(C2(N3CCCCC3)CCCCC2)c1` .
Result :: inactive

Query :: Please let me know the test result on file for FC(F)OC(F)(F)C(F)Cl (centres undefined) .
Result :: inactive

Query :: Please let me know the test result on file for CNC(C)C(O)c1ccc(O)cc1 (centres undefined) .
Result :: inactive

Query :: Please let me know the test result on file for O=C1C2CC=CCC2C(=O)N1SC(Cl)(Cl)Cl (centres undefined) .
Result :: inactive

Query :: Please let me know the test result on file for `O=C1CN(O)C(c2ccccc2)=c2cc(Cl)ccc2=N1` .
Result :: inactive

Query :: Please let me know the test result on file for CCCC(C)(COC(N)=O)COC(=O)NC1CC1 (centres undefined) .
Result :: inactive

Query :: Please let me know the test result on file for `O=[N+]([O-])c1ccc(F)c([N+](=O)[O-])c1` .
Result :: inactive

Query :: Please let me know the test result on file for `C[C@H]1CCC[C@H](O)CCCCCc2cc(O)cc(O)c2C(=O)O1` .
Result :: inactive

Query :: Please let me know the test result on file for `F/C(COc1ccc2c(c1)[nH]c1ccccc12)=C1/CN2CCC1CC2` .
Result :: active

Query :: Please let me know the test result on file for O=C(NCNC(=O)NC1C(=O)NC(=O)N1CO)NC1C(=O)NC(=O)N1CO (centres undefined) .
Result :: inactive

Query :: Please let me know the test result on file for ClC1C(Cl)C(Cl)C(Cl)C(Cl)C1Cl (centres undefined) .
Result :: inactive

Query :: Please let me know the test result on file for `C=CCN=C=S` .
Result :: inactive

Query :: Please let me know the test result on file for `O=P(O)(O)C(Cl)(Cl)P(=O)(O)O` .
Result :: inactive

Query :: Please let me know the test result on file for `CNC(=O)OCC[N+](C)(C)C` .
Result :: inactive

Query :: Please let me know the test result on file for `c1ccc2sc(SNC3CCCCC3)nc2c1` .
Result :: inactive

Query :: Please let me know the test result on file for CN1[C@@H]2CC[C@H]1CC(OC1c3ccccc3CCc3ccccc31)C2 (some centres undefined) .
Result :: active

Query :: Please let me know the test result on file for `Clc1ccc(C2(Cn3cncn3)OCCO2)c(Cl)c1` .
Result :: inactive

====

- System: Tov112D
- ASSAY: Primary qHTS to identify gynecologic anti-cancer compounds using libraries of approved drugs and bioactive compounds (AID 1345084); further: nearly all actives have a fitted effect of over 55% in size
- CONDITIONS: Gynecologic cancer cell panel viability, ATPlite luminescence, 48 h; series mostly up to 57.5 µM
Inconclusive results are not listed. Active and inactive are the calls of the source. Calls follow the shape of the dose curve; as a rule, active = well fitted cell-killing curve with a large enough effect; inconclusive = small, poorly fitted or top-dose-only effect, or effect the other way; inactive = flat fitted curve, though single readings scatter.
READOUT_NAME: outcome

# MOLECULE, outcome
records = [
    ("C[C@@]12C[C@@H](c3ccoc3)OC(=O)C1CC[C@]1(C)[C@H]2[C@H]2C=C[C@]1(O)C(=O)O2 (stereo partly drawn)", "inactive"),
    ("C/C=C(\\C)C(=O)OC1CC2C(C)(C)OC(=O)CC(OC(C)=O)C2(C)C2CC(OC(=O)C(C)C)C3(C)C(c4ccoc4)CC4OC43C12C (stereo not drawn)", "inactive"),
    ("C=C(CO)C(=O)O[C@H]1C/C(C)=C/CC/C(CO)=C/[C@H]2OC(=O)C(=C)[C@H]12", "inactive"),
    ("CCCN1CCO[C@H]2c3cc(O)ccc3OC[C@@H]21", "inactive"),
    ("C[C@]12CC[C@H]3[C@@H]([C@H](O)CC4=CC(=O)CC[C@@]43C)[C@@H]1CC[C@@H]2O", "inactive"),
    ("COc1cc(CCNCc2ccccc2O)c(OC)cc1C#N", "inactive"),
    ("COC(=O)C12C(=O)C(C)(O)C(=O)C1(C)C(C)=CC1C34CCC(OC3=O)C(C)(CO)C4CCC12C (stereo not drawn)", "inactive"),
]

Query :: Answer with the recorded outcome for the molecule listed here: CCN1CC2(COC)C3[C@@H](OC)C4C1C3(C1C[C@]3(O)[C@H](OC(=O)c5ccccc5)C1[C@]4(OC(C)=O)[C@@H](O)[C@@H]3OC)[C@H](OC)C[C@H]2O (stereo partly drawn)
Result :: inactive

Origin of the recorded values: PubChem BioAssay (NCATS)
